B1: SETD8 (parent)
chain: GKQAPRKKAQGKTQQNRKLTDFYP

Variants of: B1
Procedure text: protein stability index of a GFP-peptide fusion (GPS, HEK-293T) (PSI 1-6); higher = more stable;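 also: lentivirally expressed fusions sorted by FACS into six bins by GFP to DsRed ratio, PSI derived from sequencing read proportions per bin multiplied by bin number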
Test conditions: c terminus: a fixed tail appended
If the reported protein stability index equals or exceeds 3, assign label 1. If not, assign label 0.

Request: Confirm if protein stability index reported for the variant G1S is 3 or above.
Response: label 1

Request: Follow-up item: K8W
Response: label 1

Request: Follow-up item: Q14F
Response: label 0

Request: Follow-up item: Y23Q
Response: label 1

Request: Follow-up item: P5A
Response: label 0

Request: Follow-up item: F22I
Response: label 1

Request: Follow-up item: G11L
Response: label 1

Request: Follow-up item: Q10W
Response: label 0

Request: Follow-up item: R17N
Response: label 1

Request: Follow-up item: K8F
Response: label 0

Request: Follow-up item: Q10M
Response: label 0

Request: Follow-up item: A4W
Response: label 1

Request: Follow-up item: K8Q
Response: label 1

Request: Follow-up item: Q3A
Response: label 0

Request: Follow-up item: P24G
Response: label 1

Request: Follow-up item: K18V
Response: label 1

Request: Follow-up item: G11T
Response: label 0

Request: Follow-up item: D21V
Response: label 1

Request: Follow-up item: K12F
Response: label 1

All values here come from the supplement of paper PMC10567573.
